test: Cytotoxicity against human MS-G2 cells at 10 uM by MTT assay; assay type: cell-based; details: read-out: INH
Give measured cytotoxicity at 10 µM for each item. Keep answers brief.
Answers are plain numbers, in %.

Some compounds with recorded cytotoxicity at 10 µM:
>  <compound>
C/C(=C\COc1c2occc2cc2ccc(=O)oc12)CO

>  <quantity>
cytotoxicity at 10 µM

>  <value-observed>
13

$$$$
>  <compound>
C/C(=C/COc1c2occc2cc2ccc(=O)oc12)C(=O)O

>  <quantity>
cytotoxicity at 10 µM

>  <value-observed>
11.7

$$$$
>  <compound>
O=c1ccc2cc3ccoc3c(O)c2o1 [XANTHOTOXOL]

>  <quantity>
cytotoxicity at 10 µM

>  <value-observed>
7.8

$$$$
>  <compound>
CC(C)=CCOc1c2occc2cc2ccc(=O)oc12 [PENTOSALEN]

>  <quantity>
cytotoxicity at 10 µM

>  <value-observed>
11

$$$$

// moving on: another record for cytotoxicity at 10 µM
get_value(item= C/C(=C/COc1c2occc2cc2ccc(=O)oc12)CO [Z-trichoclin] , readout=cytotoxicity at 10 µM) returns 18

* * *

Field: cytotoxicity at 100 µM. Provide a value for each of the molecules that follow.
test: Cytotoxicity against human MS-G2 cells at 100 uM by MTT assay; assay type: cell-based; conditions: read-out: INH
Could you write the number and then its unit?

>  <smiles-record>
CC(C)=CCOc1c2occc2cc2ccc(=O)oc12

>  <cytotoxicity at 100 µM>
-8.7%

$$$$
>  <smiles-record>
C/C(=C/COc1c2occc2cc2ccc(=O)oc12)CO

>  <cytotoxicity at 100 µM>
12.6%

$$$$
>  <smiles-record>
C/C(=C\COc1c2occc2cc2ccc(=O)oc12)CO

>  <cytotoxicity at 100 µM>
10.3%

$$$$
>  <smiles-record>
C/C(=C/COc1c2occc2cc2ccc(=O)oc12)C(=O)O

>  <cytotoxicity at 100 µM>
14.7%

$$$$

Consider now this further molecule.
Value of cytotoxicity at 100 µM reported for the molecule O=c1ccc2cc3ccoc3c(O)c2o1 is 17%

* * *

Record form. Attribute: inhibition at 50 µM. Fill in for each entry.
tested on: Hepatitis B virus; test: Antiviral activity against hepatitis B virus infected in human MS-G2 cells assessed as inhibition of surface antigen production at 50 uM after 48 hrs; assay type: functional; conditions: MS-G2, 48 h
One number for each entry, in %.

These recorded examples may help you get a feel for the data.
>  <smiles-record>
CC(C)=CCOc1c2occc2cc2ccc(=O)oc12

>  <unit>
%

>  <value-observed>
55.3

$$$$
>  <smiles-record>
C/C(=C/COc1c2occc2cc2ccc(=O)oc12)C(=O)O

>  <unit>
%

>  <value-observed>
12.3

$$$$
>  <smiles-record>
C/C(=C/COc1c2occc2cc2ccc(=O)oc12)CO

>  <unit>
%

>  <value-observed>
34.6

$$$$
>  <smiles-record>
O=c1ccc2cc3ccoc3c(O)c2o1

>  <unit>
%

>  <value-observed>
10.5

$$$$

Switching to the query record.
Entry C/C(=C\COc1c2occc2cc2ccc(=O)oc12)CO : inhibition at 50 µM on Hepatitis B virus = 37.4

* * *

experiment: Cytotoxicity against human MS-G2 cells at 50 uM by MTT assay; format: cell-based; settings: read-out: INH
Note to self: values exactly at 10% are 1. So cytotoxicity at 50 µM at or above 10% is 1, below is 0.

Solved entries:
>  <smiles-record>
O=c1ccc2cc3ccoc3c(O)c2o1

>  <group-label>
1

$$$$
>  <smiles-record>
C/C(=C/COc1c2occc2cc2ccc(=O)oc12)C(=O)O

>  <group-label>
1

$$$$

Please tell me: is the molecule CC(C)=CCOc1c2occc2cc2ccc(=O)oc12 at or over 10% in terms of cytotoxicity at 50 µM? 0

Test whether the molecule C/C(=C\COc1c2occc2cc2ccc(=O)oc12)CO records cytotoxicity at 50 µM of 10% or higher. 0

Determine whether this molecule has cytotoxicity at 50 µM no lower than 10%: C/C(=C/COc1c2occc2cc2ccc(=O)oc12)CO 1
